- ASSAY REMARKS: yeast display, Sf9 membrane polyspecificity reagent, FACS + sequencing; frameworks hold sequencing errors
PARAMETER MEASURED: polyreactivity (PSR sort gate)

[[record]]
construct_sequence = "QDQLVESGGGLVQAVGSLRLSCAASGSTFGLYAMGWYRQAPGKERELVAAITIRGGSTYYADSVKGRFTISRDNAKKTVYLQMNSLKPEDTAVYYCAADYWYGCFEYWGQGTQVTVSS"
result = "low polyreactivity"

[[record]]
construct_sequence = "QVQRVESGGGLVQAGASLRLSCAASGSTFDPYAKGWYRQAPGKERELVAAISGRGGSTYYADSVKGRFTISRDNAKNTLYLQMNSLKPEDTADYYCNAEGEYRRDRYDYWGQGTQVTVSS"
result = "low polyreactivity"

[[record]]
construct_sequence = "QVQLQGSGGGLVQAGGSLRLSCAASGYIFQNVPMGWNRQAPCKERELVAGIDNGTSTNYADSVNGRFTISRDNAKNTVYLQMNSLKPEDTAVYYCAAAGQADDTLGYWGQGTQVTVSS"
result = "low polyreactivity"


----------
- ASSAY REMARKS: yeast display, Sf9 membrane polyspecificity reagent, FACS + sequencing; frameworks hold sequencing errors
PARAMETER MEASURED: polyreactivity (PSR sort gate)

[[record]]
construct_sequence = "QVQLVESGGGLVQAGGSLRLSCAHSGSSFYRYSMRWYIQAPGKERELDAAISTSGGRTYYADSVKGRFSISRDNAKNTVYLQMNSLKPEDTAVYYCAADQYRYYRSTYDYWGQGTQVTVSS"
parameter_measured = "polyreactivity (PSR sort gate)"
result = "high polyreactivity"

[[record]]
construct_sequence = "QVQLVESGGGLVQAGCSLRLSCAASGFTFSYYAMGSYRQAPGKERELVASISRSGNTYYADSVKGRFTISRDNAKNTVYLQMNSLKPEDTAVYYCAAKRKSYYSYNFDYWGQGTQVTVSS"
parameter_measured = "polyreactivity (PSR sort gate)"
result = "high polyreactivity"

[[record]]
construct_sequence = "QVQLVESGGGLVQAGGSLRLSCAASGFIFLYNVMGWYRQAPGKERELVAAISWRGGTYYAHSVKGRFTISRDNAKNTVYLQMNSLKPEDTAVYYCAKKQRYYGRMDYWGQGTQVTVSS"
parameter_measured = "polyreactivity (PSR sort gate)"
result = "high polyreactivity"

[[record]]
construct_sequence = "QVQLEESGGGLVQAGGSLRLSCAASGIIFWYYAMGWSRQAPGKERELVAAINSGDSTNYADSVKGRYTISRDNAKNTVYLQMNSLKPEDTAVYYCATVSSYTGGYWGQGTQVTVSS"
parameter_measured = "polyreactivity (PSR sort gate)"
result = "low polyreactivity"

[[record]]
construct_sequence = "QVQLVESGGGLVQAGGSLRLSCAASGFTFRWNAMGWYRQAPGKERELVAAITNDDSTYYADSVKGRFTISRDNAKNTVYLQMNSLKPEDTAVYYCNARYGRYLDLDTGVALAGRGYWGQGTQVSVSS"
parameter_measured = "polyreactivity (PSR sort gate)"
result = "low polyreactivity"


----------
- ASSAY REMARKS: yeast display, Sf9 membrane polyspecificity reagent, FACS + sequencing; frameworks hold sequencing errors
PARAMETER MEASURED: polyreactivity (PSR sort gate)

[[record]]
construct_sequence = "QVQLVDSGGGLVQAGGSLRLSCAGSGLTFRFYAMVWYRQAPGKEREFVAAISSSGTTTYYADSVKGRFTISRDNAKNTVYLQMNSLKPEDTADFYCNKEYTTYGYDLEYDFWGQGTQVTVSS"
parameter_measured = "polyreactivity (PSR sort gate)"
result = "low polyreactivity"

[[record]]
construct_sequence = "QVQLVESGGGLVQAGGSLRLSCAASGRIFLGYAMGWYRQAPGQERELVASITSSGGSTYYADSVKGRFTISRDNAKNTVYLLMNSLKPEDTAVYYCAKVGHYRWGWLSRAASDYWGQGTQVTVSS"
parameter_measured = "polyreactivity (PSR sort gate)"
result = "high polyreactivity"

[[record]]
construct_sequence = "QVQLVESGGGLVQAGGSLRLSCAASGSTFAINAMGWYRQAPGKERELVAAITYSGGGTYYADSVKGRFTISRENAKNTVYLQMNSLKPEDTAVYYCYAYGRSWVFNYIGVFLYDYWGQGTQVTVSS"
parameter_measured = "polyreactivity (PSR sort gate)"
result = "low polyreactivity"

[[record]]
construct_sequence = "QVQLVESGGGLVQAGGSLRLSCAASGSTFHSYAMGWYRQAPGKERELVAAISSSGGSTYYADSVKGRFTISRDNAKNTVYLQMNSLKPEDTAVYYCAADWRTKGYDSLGQGTQVTVSS"
parameter_measured = "polyreactivity (PSR sort gate)"
result = "high polyreactivity"

[[record]]
construct_sequence = "QVQLVESGVGLVQAGGSLRLSCAASGRIFWDYGMGWYRQAPGKERELVAVITWGGGSTYYADSVKGRFTISRDNAKNTVYLQMNSLKPEDTAVYYCAKEYHYYYWGQGTEVTVSS"
parameter_measured = "polyreactivity (PSR sort gate)"
result = "low polyreactivity"

[[record]]
construct_sequence = "QVQLVESGGGLVQAGGSLRLSCAASGFTFPWYTMGWYRQAPGKERELVAAINSRGGSTYYADSVKGRFTISRDNAKNTVYLQMNSLKPEDTAVYYCATRSFGRMDYWGQGTQVTVSS"
parameter_measured = "polyreactivity (PSR sort gate)"
result = "high polyreactivity"

[[record]]
construct_sequence = "QVQLVESGGGLVQAGGSLRLICAASGSIFDYNAMGWYRQAPGKERELVAAITSTDSTYADSVKGRFTISRDNAKNTVYLQMNSLKPEDTAVYYCNARYLAWTYYYPYDYWGQGTQVTVSS"
parameter_measured = "polyreactivity (PSR sort gate)"
result = "low polyreactivity"

[[record]]
construct_sequence = "QVQLVESGGGLVQAGGSLRLSCAASGSIFKYYAMGWYRQAPGKERELVAAISSGGRTNYADSVKGRFTISRDNAKNTVYLQMNSLKPEDTAVYYCAAGWYRKHRQPSGVGGDYWGQGTQVTVSS"
parameter_measured = "polyreactivity (PSR sort gate)"
result = "high polyreactivity"

[[record]]
construct_sequence = "QVQLVESGGGLVQAGGSLRLSCAPSGFTFLWYAMGWYRQAPGKERELVAGISSDGSTNADSVKGRFTISRDNAKNTVYLQMNSLKPEDTAVYYCDADYSSPWQAVQGDDYWGQGTQVNVSS"
parameter_measured = "polyreactivity (PSR sort gate)"
result = "low polyreactivity"

[[record]]
construct_sequence = "QVQLVESGGGLVQAGGSLRLSCAASARIFRYYAMGWYRQAPGKERELVAGISWRGSSTYYADSVKGRFTISRDNAKNTVYLQMNSLKPEDTAVYYCNRDQSNIPVTGGRFYYWRQGTQVTVSS"
parameter_measured = "polyreactivity (PSR sort gate)"
result = "high polyreactivity"

[[record]]
construct_sequence = "QVQLVESGGGLVQAGGSLRLSCAASGFIIYFYAMGWYRQAPGKERELVAAINYPGDSTYYADSVKGRFTISRDNAKNTVYLQMNSLKPEDTAVYYCNKVLYNKWPYVTLSAFPTVGYWGQGTQVTVSS"
parameter_measured = "polyreactivity (PSR sort gate)"
result = "high polyreactivity"


----------
- ASSAY REMARKS: yeast display, Sf9 membrane polyspecificity reagent, FACS + sequencing; frameworks hold sequencing errors
PARAMETER MEASURED: polyreactivity (PSR sort gate)

[[record]]
construct_sequence = "QVQLVESGGGLVQAGGSLRLSCAASGSIFYPYDMGWYRQAPGKERELVATINWSSGRTNYADSVKGRFTISRDNAKNTVYLQMNSLKPEDTAVYYCNAVTYSRRYAYYYWGQATQVTVSS"
parameter_measured = "polyreactivity (PSR sort gate)"
result = "high polyreactivity"

[[record]]
construct_sequence = "QVQLVESGGGLVQAGGSLRLSCAASGSTFYLYAMGWYRQAPGKERELVAAIRGGGITNYADSVKGRFTISRDNAKNTVYLQINSLKPEDTAVYYCAADSTLRGFDYWGQGTQVTVSS"
parameter_measured = "polyreactivity (PSR sort gate)"
result = "high polyreactivity"

[[record]]
construct_sequence = "QVQLVESAGGLDQARGSLRLSCAASGFTFIRYAMGWYRQAPGKESELVATITRSGGSTYYADSVKGRFTISRDNAKNTVYLQMNSLKPEDTAVYYCAKRGTLGSYYYWGQGTQVTVSS"
parameter_measured = "polyreactivity (PSR sort gate)"
result = "high polyreactivity"

[[record]]
construct_sequence = "QVQLVESGGGLVQAGGSLRLSCAASGSTFGSYAMGWYRQAPGKERELVAVITGGGDTNYADSVKGRFTISRDNAKNTVYLQMNSLKPEDTAVYYCAAEGSFYRYHVGSDYWGQGTQLTVSS"
parameter_measured = "polyreactivity (PSR sort gate)"
result = "low polyreactivity"

[[record]]
construct_sequence = "QVQLVESGGGLVQAGGSLRLSCAASGFTFDIYAMGWYRQAPGKEREMVADITSGGSTDYADSVKGRFTISRDNAKNTVYLQMNSLKPEDTAVYYCNGAVFYDPEWQYDYWGQGSQVTVSS"
parameter_measured = "polyreactivity (PSR sort gate)"
result = "low polyreactivity"

